Test system: HCV replicon 1AQ30D
Test: microbe, parasite or virus in culture
Type: cell-based, Hepatitis C virus (HCV)
Settings: replicon 1AQ30D; Replicon Assay B; read-out: 1A Q30D IC50

[
  {
    "compound": "COC(=O)NC(C(=O)N1CCC[C@H]1c1ncc(-c2ccc3c(c2)cc2n3C(c3ccc(CC(F)(F)F)s3)Oc3cc(-c4cnc([C@@H]5CCCN5C(=O)[C@@H](NC(=O)OC)C(C)C)[nH]4)cc(F)c3-2)[nH]1)C1C[C@@H](C)O[C@@H](C)C1 (single isomer, unassigned)",
    "units_of_measure": "nM",
    "IC50": 0.0229
  }
]

* * *

System: HCV replicon 1AQ30D
Experiment: microbe, parasite or virus in culture
Assay type: cell-based, Hepatitis C virus (HCV)
Details: Hepatitis C virus, read-out: 1A Q30D IC50 (nM), replicon 1AQ30D; Replicon Assay B
Reported IC50 by item:
assay_endpoint: IC50

[
  {
    "compound": "COCC(C)(C)c1ccc(C2Oc3cc(-c4cnc([C@@H]5CCCN5C(=O)[C@@H](NC(=O)OC)C(C)C)[nH]4)cc(F)c3-c3cc4cc(-c5cnc([C@@H]6CCCN6C(=O)[C@@H](NC(=O)OC)C(C)C)[nH]5)ccc4n32)s1 (single isomer, unassigned)",
    "obs_value": "0.292 nM"
  },
  {
    "compound": "COC(=O)NC(C(=O)N1CCC[C@H]1c1ncc(-c2cc(F)c3c(c2)OC(c2ccc(C4CC4)s2)n2c-3cc3cc(-c4cnc([C@@H]5CCCN5C(=O)C(NC(=O)OC)C5C[C@@H](C)O[C@@H](C)C5)[nH]4)ccc32)[nH]1)C1C[C@@H](C)O[C@@H](C)C1 (single isomer, unassigned)",
    "obs_value": "0.33 nM"
  },
  {
    "compound": "COC(=O)N[C@H](C(=O)N1CCC[C@H]1c1ncc(-c2cc(F)c3c(c2)OC(c2ccc(C4CC4)s2)n2c-3cc3cc(-c4cnc([C@@H]5CCCN5C(=O)[C@@H](NC(=O)OC)C5CCOCC5)[nH]4)ccc32)[nH]1)C(C)C (stereo partly shown)",
    "obs_value": "0.02 nM"
  },
  {
    "compound": "COC(=O)NC(C(=O)N1[C@@H]2C[C@@H]2C[C@H]1c1ncc(-c2ccc3c(c2)cc2n3C(c3ccc(C4CC4)s3)Oc3cc(-c4cnc([C@@H]5CCCN5C(=O)[C@@H](NC(=O)OC)C(C)C)[nH]4)cc(F)c3-2)[nH]1)C(C)(C)F (stereo partly shown)",
    "obs_value": "0.053 nM"
  }
]

* * *

System: HCV replicon 2B
Test: microbe, parasite or virus in culture
Type: cell-based, Hepatitis C virus (HCV)
Details: read-out: 2B IC50; HCV replicon 2B; Replicon Assay A
pIC50: −log10 of the molar value.
Note to self: values exactly at 10 are Condition met. So pIC50 at or above 10 is Condition met, below is Condition not met.

[
  {
    "compound": "COC(=O)N[C@H](C(=O)N1CCC[C@H]1c1nc(-c2cc(F)c3c(c2)OC(c2ccc(C4CC4)s2)n2c-3cc3cc(-c4c[nH]c([C@@H]5C[C@H]6C[C@H]6N5C(=O)[C@@H](NC(=O)OC)C(C)C)n4)ccc32)c[nH]1)C(C)C (single isomer, unassigned) [Compound 721]",
    "assayed_target": "HCV replicon 2B",
    "category_label": "Condition met"
  },
  {
    "compound": "COC(=O)N[C@H](C(=O)N1C2CC2C[C@H]1c1ncc(-c2cc(F)c3c(c2)OC(c2ccc(C4CC4)s2)n2c-3cc3cc(-c4cnc([C@@H]5CCCN5C(=O)[C@@H](NC(=O)OC)C5C[C@@H](C)O[C@@H](C)C5)[nH]4)ccc32)[nH]1)C(C)C (single isomer, unassigned) [Compound 557]",
    "assayed_target": "HCV replicon 2B",
    "category_label": "Condition met"
  },
  {
    "compound": "COC(=O)N[C@H](C(=O)N1CCC[C@H]1c1ncc(-c2cc(C)c3c(c2)OC(c2cc4c(s2)CCC4)n2c-3cc3cc(-c4cnc([C@@H]5CCCN5C(=O)[C@@H](NC(=O)OC)C5C[C@@H](C)O[C@@H](C)C5)[nH]4)ccc32)[nH]1)C(C)C (single isomer, unassigned) [Compound 550]",
    "assayed_target": "HCV replicon 2B",
    "category_label": "Condition met"
  },
  {
    "compound": "COC(=O)N[C@H](C(=O)N1CCC[C@H]1c1ncc(-c2cc(F)c3c(c2)OC(c2cc4ccccc4s2)n2c-3cc3cc(-c4cnc([C@@H]5C[C@H]6C[C@H]6N5C(=O)[C@@H](NC(=O)OC)C(C)C)[nH]4)ccc32)[nH]1)C(C)C (single isomer, unassigned) [Compound 615]",
    "assayed_target": "HCV replicon 2B",
    "category_label": "Condition not met"
  },
  {
    "compound": "COC(=O)N[C@H](C(=O)N1C[C@H](F)C[C@H]1c1ncc(-c2ccc3c(c2)cc2n3C(c3cc4ccccc4s3)Oc3cc(-c4cnc([C@@H]5CCCN5C(=O)[C@@H](NC(=O)OC)C5CCOCC5)[nH]4)ccc3-2)[nH]1)C(C)C (single isomer, unassigned) [Compound 624]",
    "assayed_target": "HCV replicon 2B",
    "category_label": "Condition not met"
  },
  {
    "compound": "COC(=O)N[C@H](C(=O)N1C[C@H](F)C[C@H]1c1ncc(-c2ccc3c(c2)OC(c2ccc(C)s2)n2c-3cc3cc(-c4cnc([C@@H]5C[C@H]6C[C@H]6N5C(=O)[C@@H](NC(=O)OC)C(C)C)[nH]4)ccc32)[nH]1)C(C)C (single isomer, unassigned) [Compound 707]",
    "assayed_target": "HCV replicon 2B",
    "category_label": "Condition not met"
  },
  {
    "compound": "COC(=O)N[C@H](C(=O)N1C2CC2C[C@H]1c1ncc(-c2cc(F)c3c(c2)OC(c2ccc(C4CC4)s2)n2c-3cc3cc(-c4cnc([C@@H]5CCCN5C(=O)[C@@H](NC(=O)OC)C5C[C@@H](C)O[C@@H](C)C5)[nH]4)ccc32)[nH]1)C(C)C (single isomer, unassigned) [Compound 556]",
    "assayed_target": "HCV replicon 2B",
    "category_label": "Condition not met"
  },
  {
    "compound": "C=C(C)C1Oc2cc(-c3cnc([C@@H]4CCCN4C(=O)[C@@H](N)C(C)C)[nH]3)cc(F)c2-c2cc3cc(-c4cnc([C@@H]5C[C@H]6C[C@H]6N5C(C)=O)[nH]4)ccc3n21 (single isomer, unassigned) [Compound 572]",
    "assayed_target": "HCV replicon 2B",
    "category_label": "Condition met"
  }
]

* * *

System: HCV replicon 2B
Experiment: microbe, parasite or virus in culture
Type: cell-based, Hepatitis C virus (HCV)
Conditions: read-out: 2B IC50; HCV replicon 2B; Replicon Assay A
Protocol: To measure cell-based anti-HCV activity of compounds of the present invention, two complimentary assays were employed using various replicons. […] The replicon RNA level was measured using real time PCR (TaqMan® EZ RT-PCR, Applied Biosystems 403028) with the following primers and probes: […] The amount of HCV replicon RNA per cell is quantified using a linear regression curve for a known nanogram (ng) amount of HCV replicon total RNA. […]
assay_endpoint: IC50 (nM)

[
  {
    "compound": "COC(=O)N[C@H](C(=O)N1CCC[C@H]1c1ncc(-c2cc(C)c3c(c2)OC(c2ccc(C4CC4)s2)n2c-3cc3cc(-c4cnc([C@@H]5C[C@H]6C[C@H]6N5C(=O)[C@@H](NC(=O)OC)C5CCOCC5)[nH]4)ccc32)[nH]1)C(C)C (single isomer, unassigned) [Compound 763]",
    "assay_endpoint": "IC50",
    "obs_value": 0.062
  },
  {
    "compound": "COC(=O)NC(C(=O)N1CCC[C@H]1c1ncc(-c2ccc3c(c2)cc2n3C(c3cc4ccccc4s3)Oc3cc(-c4cnc([C@@H]5CCCN5C(=O)[C@@H](NC(=O)OC)C(C)C)[nH]4)cc(F)c3-2)[nH]1)C1C[C@@H](C)O[C@@H](C)C1 (single isomer, unassigned) [Compound 640]",
    "assay_endpoint": "IC50",
    "obs_value": 0.0253
  }
]

* * *

Consider the following molecules and their measured IC50 readings.
Tested on: HCV replicon 1AY93H
Assay: microbe, parasite or virus in culture
Format: cell-based, Hepatitis C virus (HCV)
Settings: read-out: 1A Y93H IC50; replicon 1AY93H; Replicon Assay A
assay_endpoint: IC50

[
  {
    "molecule": "CCc1ccc(C2Oc3cc(-c4cnc([C@@H]5CCCN5C(=O)[C@@H](NC(=O)OC)C(C)C)[nH]4)cc(F)c3-c3cc4cc(-c5cnc([C@@H]6C[C@@H](F)CN6C(=O)C(NC(=O)OC)C6CCOC(C)(C)C6)[nH]5)ccc4n32)s1 (single isomer, unassigned) [Compound 259]",
    "obs_value": "0.002 nM"
  },
  {
    "molecule": "COC(=O)NC(C(=O)N1CCC[C@H]1c1ncc(-c2cc(F)c3c(c2)OC(c2ccc(C4CCC4)s2)n2c-3cc3cc(-c4cnc([C@@H]5CCCN5C(=O)[C@@H](NC(=O)OC)C5CCOCC5)[nH]4)ccc32)[nH]1)C(C)(C)F (single isomer, unassigned) [Compound 251]",
    "obs_value": "0.06 nM"
  },
  {
    "molecule": "[2H]C(C)(C)C(NC(=O)OC)C(=O)N1CCC[C@H]1c1ncc(-c2cc(F)c3c(c2)OC(c2ccc(C4CC4)s2)n2c-3cc3cc(-c4cnc([C@@H]5CCCN5C(=O)[C@@H](NC(=O)OC)C(C)C)[nH]4)ccc32)[nH]1 (single isomer, unassigned) [Compound 29]",
    "obs_value": "1.32 nM"
  },
  {
    "molecule": "COC(=O)N[C@H](C(=O)N1CCC[C@H]1c1ncc(-c2cc(F)c3c(c2)OC(c2ccc(C(C)C)s2)n2c-3cc3cc(-c4cnc([C@@H]5CCCN5C(=O)[C@@H](NC(=O)OC)C5CCOCC5)[nH]4)ccc32)[nH]1)C(C)C (single isomer, unassigned) [Compound 345]",
    "obs_value": "0.0012 nM"
  }
]
